experiment: Trough concentration in human whole blood at 80 mg, bid; type: ADME, tissue-based; settings: read-out: Cmin
Measure name: concentration (nM)
Report the value in nM with no unit label.

// recorded concentration for Cc1c(-c2ccc(NC(=O)c3c(F)cccc3F)cc2)cccc1-c1nn(C)c(=O)o1 : 667

----------
assay: AUClast in BALB/c mouse model of mBSA-induced delayed type hypersensitivity at 1 mg/kg, po administered twice daily for 7 days followed by mBSA challenge and measured after 24 hrs; format: ADME, organism-based; set-up: route oral, dose 1 mg/kg, time 8 day; conditions: in vivo
Measure name: AUC(0-t) at 192 h (µM·h)
The reply should contain only the number, in µM·h.

The measured AUC(0-t) at 192 h associated with Cc1c(-c2ccc(NC(=O)c3c(F)cccc3F)cc2)cccc1-c1nn(C)c(=O)o1 reads 3.1

----------
Can you tell me AUC(0-t) at 24 h for the items I'm about to list?
experiment: AUClast in BALB/c mouse at 1 mg/kg, iv measured upto 24 hrs by LC-MS/MS analysis; format: ADME, organism-based; design: route intravenous, dose 1 mg/kg, time <=24; details: in vivo
Answer with the value and then the unit.

The value of AUC(0-t) at 24 h measured for the compound Cc1c(-c2ccc(NC(=O)c3c(F)cccc3Cl)cc2)cccc1-c1nn(C)c(=O)o1 turned out to be 4 µM·h

Record summary for Cc1c(-c2ccc(NC(=O)c3c(F)cccc3F)cc2)cccc1-c1nn(C)c(=O)o1 : reported AUC(0-t) at 24 h = 7.1 µM·h

----------
assay: Tmax in CFA-induced rheumatoid arthritis Lewis rat model at 1 mg/kg, po administered once daily for 15 days; assay type: ADME, organism-based; settings: in vivo, time 15 day
Measure name: Tmax (h)
API: value field is a number in h; no unit string.

Notebook: Cc1c(-c2ccc(NC(=O)c3c(F)cccc3F)cc2)cccc1-c1nn(C)c(=O)o1 , Tmax read as 2

----------
assay: AUClast in CFA-induced rheumatoid arthritis Lewis rat model at 3 mg/kg, po administered once daily for 15 days; format: ADME, organism-based; design: route oral, time 15 day, dose 3 mg/kg; details: in vivo
Measure name: AUC(0-t) at 360 h (µM·h)
Reply numerically in µM·h, unit not repeated.

Summary for this molecule, Cc1c(-c2ccc(NC(=O)c3c(F)cccc3F)cc2)cccc1-c1nn(C)c(=O)o1 : AUC(0-t) at 360 h is 80

----------
assay: Clearance in Lewis rat at 1 mg/kg, iv measured upto 24 hrs by LC-MS/MS analysis; type: ADME, organism-based; details: in vivo
For each of the compounds below, state its clearance.
Please state the figure in L/h/kg; there is no need to write the unit.

Cc1ccc(-c2nn(C)c(=O)o2)cc1-c1ccc(NC(=O)c2c(F)cccc2F)cc1 has a reported clearance of 0.084

# clearance of Cc1c(-c2ccc(NC(=O)c3c(F)cccc3F)cc2)cccc1-c1nn(C)c(=O)o1 = 0.054

For this compound ( Cc1c(-c2ccc(NC(=O)c3c(F)cccc3Cl)cc2)cccc1-c1nn(C)c(=O)o1 ), measured clearance is 0.06

----------
test: Tmax in BALB/c mouse model of mBSA-induced delayed type hypersensitivity at 1 mg/kg, po administered twice daily for 7 days followed by mBSA challenge and measured after 24 hrs; assay type: ADME, organism-based; conditions: in vivo, time 8 day
Measure name: Tmax (h)
Please respond with the number in h and leave the unit unwritten.

Form field Tmax, entry Cc1c(-c2ccc(NC(=O)c3c(F)cccc3F)cc2)cccc1-c1nn(C)c(=O)o1 : 2

----------
assay: Inhibition of SOCE in rat RBL-2H3 cells preincubated for 5 mins with thapsigargin followed by calcium chloride addition and measured after 5 mins by Fura-2AM dye based analysis; format: cell-based
Measure name: IC50 (nM)
State the answer as a number, implicitly in nM.

Lab note: measured IC50 of O=C(Nc1ccc(-n2nc(C(F)(F)F)cc2C(F)(F)F)cc1)c1ccncc1F was 490

----------
assay: Cmax in BALB/c mouse at 1 mg/kg, iv measured upto 24 hrs by LC-MS/MS analysis; assay type: ADME, organism-based; parameters: route intravenous, dose 1 mg/kg, time <=24; conditions: in vivo
Measure name: Cmax (µM)
# output: bare number, implied unit µM

Given item Cc1c(-c2ccc(NC(=O)c3c(F)cccc3F)cc2)cccc1-c1nn(C)c(=O)o1 , the value recorded as its Cmax is 4.2

# Cmax of Cc1c(-c2ccc(NC(=O)c3c(F)cccc3Cl)cc2)cccc1-c1nn(C)c(=O)o1 = 4.3

----------
experiment: Tmax in collagen-induced rheumatoid arthritis DBA/1J mouse model at 0.75 mg/kg, po administered once daily for 15 days; type: ADME, organism-based; settings: in vivo, time 15 day
Measure name: Tmax (h)
Could you give me the number in h? Just the number is fine.

# Tmax of CN(Cc1cnc2nc(N)nc(N)c2n1)c1ccc(C(=O)N[C@@H](CCC(=O)O)C(=O)O)cc1 [METHOTREXATE] = 1

----------
Answer each item with its documented AUC(0-t) at 24 h.
assay: AUClast in Lewis rat at 10 mg/kg, po measured upto 24 hrs by LC-MS/MS analysis; format: ADME, organism-based; set-up: route oral, dose 10 mg/kg, time <=24; details: in vivo
Put your answer as a value accompanied by its unit after it.

response.value for O=C(Nc1ccc(-c2cc(C(F)(F)F)ccc2Cl)cc1)c1c(F)cccc1F (field: AUC(0-t) at 24 h) = 0.93 µM·h

Entry Cc1ccc(-c2nn(C)c(=O)o2)cc1-c1ccc(NC(=O)c2c(F)cccc2F)cc1 — recorded AUC(0-t) at 24 h = 75 µM·h

Note to self: AUC(0-t) at 24 h recorded for Cc1c(-c2ccc(NC(=O)c3c(F)cccc3F)cc2)cccc1-c1nn(C)c(=O)o1 was 353 µM·h

AUC(0-t) at 24 h recorded for this compound, Cc1ccc(C2=NOC(C)(C)C2=O)cc1-c1cnc(NC(=O)c2c(F)cccc2F)cn1 , is 13 µM·h

// AUC(0-t) at 24 h lookup, compound = Cc1c(-c2ccc(NC(=O)c3c(F)cccc3Cl)cc2)cccc1-c1nn(C)c(=O)o1 , result: 167 µM·h

----------
biological target: Stromal interaction molecule 1/Protein orai-3 (Homo sapiens, UniProt Q13586+Q9BRQ5); assay: Inhibition of human STIM1/Orai3 expressed in HEK293 cells assessed as reduction in Orai3 current by electrophysiological method
Measure name: IC50 (µM)
Give the quantity in µM, number only.

So for O=C(Nc1ccn(Cc2ccc(O)cc2C(F)(F)F)n1)c1c(F)cccc1F , the logged IC50 turned out to be 4

----------
assay: Half life in BALB/c mouse at 1 mg/kg, iv measured upto 24 hrs by LC-MS/MS analysis; assay type: ADME, organism-based; conditions: in vivo
Measure name: half-life (h)
Lab book: enter the figure in h, no units written.

Consider Cc1c(-c2ccc(NC(=O)c3c(F)cccc3F)cc2)cccc1-c1nn(C)c(=O)o1 . Its measured half-life is 6.4

half-life in this record for Cc1c(-c2ccc(NC(=O)c3c(F)cccc3Cl)cc2)cccc1-c1nn(C)c(=O)o1 : 5

----------
test: Trough concentration in human whole blood at 160 mg, qd; format: ADME, tissue-based; conditions: read-out: Cmin
Measure name: concentration (nM)
Just the number in nM, nothing appended.

Lab note: measured concentration of Cc1c(-c2ccc(NC(=O)c3c(F)cccc3F)cc2)cccc1-c1nn(C)c(=O)o1 was 403

----------
assay: Apparent permeability across apical to basolateral side in human Caco-2 cells at 5 uM measured upto 120 mins in orbital shaker; type: ADME, cell-based
I'd be grateful if you could share measured Papp A→B at 2 h, 5 µM for these entries.
Report the figure in nm/s without appending any unit label.

Reported Papp A→B at 2 h, 5 µM of Cc1c(-c2ccc(NC(=O)c3c(F)cccc3Cl)cc2)cccc1-c1nn(C)c(=O)o1 : 123

Entry Cc1c(-c2ccc(NC(=O)c3c(F)cccc3F)cc2)cccc1-c1nn(C)c(=O)o1 , Papp A→B at 2 h, 5 µM reported as 141

----------
Could you please report measured IC50 for the items listed next?
biological target: ORAI1/STIM1 (Homo sapiens, UniProt Q13586+Q96D31); assay: Inhibition of Orai1/STIM1 (unknown origin) expressed in HEK293 cells assessed as reduction in Ca2+-release activated Ca2+ entry current by manual patch clamp based electrophysiological method; type: cell-based
Sequence (Q96D31 whole entry): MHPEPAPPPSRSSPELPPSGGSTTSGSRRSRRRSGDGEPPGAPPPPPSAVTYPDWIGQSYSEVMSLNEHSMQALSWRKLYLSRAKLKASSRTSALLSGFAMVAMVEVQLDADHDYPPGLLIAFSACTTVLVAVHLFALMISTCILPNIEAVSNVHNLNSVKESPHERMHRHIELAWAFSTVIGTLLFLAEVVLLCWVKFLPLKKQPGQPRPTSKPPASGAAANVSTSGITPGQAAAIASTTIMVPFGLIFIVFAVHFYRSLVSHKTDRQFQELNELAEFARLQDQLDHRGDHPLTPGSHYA
Sequence (Q13586 whole entry): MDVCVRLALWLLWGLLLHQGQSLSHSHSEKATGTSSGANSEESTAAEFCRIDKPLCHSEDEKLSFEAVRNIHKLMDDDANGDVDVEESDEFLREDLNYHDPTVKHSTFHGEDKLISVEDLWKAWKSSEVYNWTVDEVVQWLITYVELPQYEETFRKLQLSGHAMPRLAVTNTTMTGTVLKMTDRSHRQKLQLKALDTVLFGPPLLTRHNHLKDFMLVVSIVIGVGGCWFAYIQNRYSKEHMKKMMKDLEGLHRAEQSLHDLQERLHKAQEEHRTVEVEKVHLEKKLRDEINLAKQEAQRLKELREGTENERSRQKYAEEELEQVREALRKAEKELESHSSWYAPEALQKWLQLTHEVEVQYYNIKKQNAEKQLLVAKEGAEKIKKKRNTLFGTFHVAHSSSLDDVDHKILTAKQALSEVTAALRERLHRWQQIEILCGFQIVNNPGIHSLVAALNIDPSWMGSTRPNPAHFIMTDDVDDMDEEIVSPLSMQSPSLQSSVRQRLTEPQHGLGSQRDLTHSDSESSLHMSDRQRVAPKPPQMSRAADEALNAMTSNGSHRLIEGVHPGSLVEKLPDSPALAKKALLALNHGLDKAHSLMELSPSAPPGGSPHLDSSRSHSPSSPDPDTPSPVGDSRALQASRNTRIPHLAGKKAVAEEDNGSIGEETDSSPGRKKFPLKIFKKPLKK
Provide only the numeric value, understood in nM.

// IC50 value for O=C(Nc1ccn(Cc2c(F)cccc2C(F)(F)F)n1)c1c(F)cccc1F : 1000

The compound Cc1c(-c2ccc(NC(=O)c3c(F)cccc3F)cc2)cccc1-c1nn(C)c(=O)o1 showed IC50 equal to 76

----------
assay: AUClast in Lewis rat at 1 mg/kg, iv measured upto 24 hrs by LC-MS/MS analysis; assay type: ADME, organism-based; parameters: route intravenous, dose 1 mg/kg, time <=24; settings: in vivo
Measure name: AUC(0-t) at 24 h (µM·h)
Use µM·h as the unit, but write only the number.

Value of AUC(0-t) at 24 h reported for the compound Cc1c(-c2ccc(NC(=O)c3c(F)cccc3F)cc2)cccc1-c1nn(C)c(=O)o1 is 29

Noted for Cc1c(-c2ccc(NC(=O)c3c(F)cccc3Cl)cc2)cccc1-c1nn(C)c(=O)o1 : its AUC(0-t) at 24 h reads 28

For Cc1ccc(-c2nn(C)c(=O)o2)cc1-c1ccc(NC(=O)c2c(F)cccc2F)cc1 the compound record lists AUC(0-t) at 24 h as 27
